assay: Pharmacokinetic study of SSR504734 in mice (serum and tissue concentrations by LC-MS/MS, noncompartmental analysis); type: in vivo; settings: mouse, kidneys (relative to serum), ip, 30 mg/kg, kidneys, single 30 mg/kg i.p., read-out: Kp (tissue-to-serum partition coefficient)
valueType: Kp

INSERT INTO results (compound, experimentalvalue) VALUES
  ('O=C(NC(c1ccccc1)C1CCCCN1)c1cccc(C(F)(F)F)c1Cl (stereo not shown)', 45);

* * *

test: Pharmacokinetic study of SSR504734 in mice (serum and tissue concentrations by LC-MS/MS, noncompartmental analysis); format: in vivo; conditions: mouse, ip, spleen, single 30 mg/kg i.p.
valueType: Tmax (min)

INSERT INTO measurements (compound, unitlabel, experimentalvalue) VALUES
  ('O=C(NC(c1ccccc1)C1CCCCN1)c1cccc(C(F)(F)F)c1Cl (stereo not shown)', 'min', 15);

* * *

assay: Pharmacokinetic study of SSR504734 in mice (serum and tissue concentrations by LC-MS/MS, noncompartmental analysis); type: in vivo; conditions: mouse, ip, kidneys, single 30 mg/kg i.p.
valueType: MRT (h)

INSERT INTO results (compound, valuetype, unitlabel, experimentalvalue) VALUES
  ('O=C(NC(c1ccccc1)C1CCCCN1)c1cccc(C(F)(F)F)c1Cl (stereo not shown) [SSR504734]', 'MRT', 'h', 2.03);

* * *

Test: Neurotoxicity, SH-SY5Y cell viability
Type: cell-based
Conditions: human, neuroblastoma SH-SY5Y cells; 50 μM, 72 h
Protocol: A series of in vitro ADME-Tox tests were performed for SSR504734 in order to estimate its drugability. […] The ability of SSR504734 to penetrate through the biological membrane by passive diffusion was estimated by the Gentest Precoated PAMPA Plate System (Corning, Tewksbury, MA) and expressed as the permeability coefficient (Pe). […] 5% CO2. The IC50 values were calculated by GraphPad Prism 8.0. […]
valueType: viability at 72 h, 50 µM

INSERT INTO assay_data (compound, experimentalvalue) VALUES
  ('O=C(NC(c1ccccc1)C1CCCCN1)c1cccc(C(F)(F)F)c1Cl (stereo not shown)', '~30%');

* * *

assay: Pharmacokinetic study of SSR504734 in mice (serum and tissue concentrations by LC-MS/MS, noncompartmental analysis); assay type: in vivo; details: mouse, ip, from serum vs time profile, 30 mg/kg i.p., read-out: volume of distribution during the terminal phase (Vz/F)
valueType: Vd/F (L/kg)

INSERT INTO results (molecule, valuetype, experimentalvalue) VALUES
  ('O=C(NC(c1ccccc1)C1CCCCN1)c1cccc(C(F)(F)F)c1Cl (stereo not shown)', 'Vd/F', 11.1);

* * *

assay: Pharmacokinetic study of SSR504734 in mice (serum and tissue concentrations by LC-MS/MS, noncompartmental analysis); assay type: in vivo; settings: mouse, ip, brain, single 30 mg/kg i.p.
valueType: MRT (h)

INSERT INTO assay_data (compound, experimentalvalue) VALUES
  ('O=C(NC(c1ccccc1)C1CCCCN1)c1cccc(C(F)(F)F)c1Cl (stereo not shown)', 2.36);

* * *

assay: Pharmacokinetic study of SSR504734 in mice (serum and tissue concentrations by LC-MS/MS, noncompartmental analysis); type: in vivo; conditions: mouse, ip, liver, single 30 mg/kg i.p., read-out: Cmax
valueType: Cmax (ng/g)

INSERT INTO assay_data (compound, valuetype, experimentalvalue) VALUES
  ('O=C(NC(c1ccccc1)C1CCCCN1)c1cccc(C(F)(F)F)c1Cl (stereo not shown)', 'Cmax', 101000);

* * *

Assay: Pharmacokinetic study of SSR504734 in mice (serum and tissue concentrations by LC-MS/MS, noncompartmental analysis)
Type: in vivo
Details: mouse, ip, spleen, single 30 mg/kg i.p.
Experimental: SSR504734 was administered i.p. at the dose of 30 mg/kg, and mice were sacrificed by decapitation at 5, 15, 30, 60, 120, 240, and 480 min after dosing. […] Serum and tissue concentrations of SSR504734 in mice were quantified by a liquid chromatography tandem mass spectrometry (LC-MS/MS) method. […] The selected reaction monitoring (SRM) for the transitions was m/z 397.2 → 207.0 and m/z 397.2 → 174.2 (quantifier and qualifier) for SSR504734 and m/z 279 → 181 for IS. […]
valueType: half-life (h)

INSERT INTO assay_data (compound, unitlabel, experimentalvalue) VALUES
  ('O=C(NC(c1ccccc1)C1CCCCN1)c1cccc(C(F)(F)F)c1Cl (stereo not shown)', 'h', 1.6);

* * *

experiment: Pharmacokinetic study of SSR504734 in mice (serum and tissue concentrations by LC-MS/MS, noncompartmental analysis); assay type: in vivo; conditions: mouse, ip, liver, single 30 mg/kg i.p.
valueType: MRT

INSERT INTO results (molecule, experimentalvalue) VALUES
  ('O=C(NC(c1ccccc1)C1CCCCN1)c1cccc(C(F)(F)F)c1Cl (stereo not shown)', '1.76 h');

* * *

test: Pharmacokinetic study of SSR504734 in mice (serum and tissue concentrations by LC-MS/MS, noncompartmental analysis); type: in vivo; conditions: mouse, ip, spleen, single 30 mg/kg i.p., read-out: Cmax
valueType: Cmax (ng/g)

INSERT INTO assay_data (molecule, unitlabel, experimentalvalue) VALUES
  ('O=C(NC(c1ccccc1)C1CCCCN1)c1cccc(C(F)(F)F)c1Cl (stereo not shown)', 'ng/g', 193000);

* * *

Assay: Metabolic stability in human liver microsomes (HLMs)
Format: in vitro ADME
Settings: after 120 min of incubation with human liver microsomes
Procedure: A series of in vitro ADME-Tox tests were performed for SSR504734 in order to estimate its drugability. […] The ability of SSR504734 to penetrate through the biological membrane by passive diffusion was estimated by the Gentest Precoated PAMPA Plate System (Corning, Tewksbury, MA) and expressed as the permeability coefficient (Pe). […]
valueType: remaining at 2 h

INSERT INTO measurements (compound, experimentalvalue) VALUES
  ('O=C(NC(c1ccccc1)C1CCCCN1)c1cccc(C(F)(F)F)c1Cl (stereo not shown) [SSR504734]', '94.7%');

* * *

test: Pharmacokinetic study of SSR504734 in mice (serum and tissue concentrations by LC-MS/MS, noncompartmental analysis); format: in vivo; conditions: mouse, liver (relative to serum), ip, 30 mg/kg, liver, single 30 mg/kg i.p., read-out: Kp (tissue-to-serum partition coefficient)
valueType: Kp

INSERT INTO assay_data (compound, experimentalvalue) VALUES
  ('O=C(NC(c1ccccc1)C1CCCCN1)c1cccc(C(F)(F)F)c1Cl (stereo not shown) [SSR504734]', 23.7);

* * *

test: Pharmacokinetic study of SSR504734 in mice (serum and tissue concentrations by LC-MS/MS, noncompartmental analysis); format: in vivo; conditions: mouse, ip, lungs, single 30 mg/kg i.p., read-out: Cmax
valueType: Cmax (ng/g)

INSERT INTO assay_data (compound, experimentalvalue) VALUES
  ('O=C(NC(c1ccccc1)C1CCCCN1)c1cccc(C(F)(F)F)c1Cl (stereo not shown) [SSR504734]', 147000);

* * *

test: Pharmacokinetic study of SSR504734 in mice (serum and tissue concentrations by LC-MS/MS, noncompartmental analysis); type: in vivo; details: mouse, ip, gut, single 30 mg/kg i.p.
valueType: Tmax (min)

INSERT INTO measurements (compound, experimentalvalue) VALUES
  ('O=C(NC(c1ccccc1)C1CCCCN1)c1cccc(C(F)(F)F)c1Cl (stereo not shown)', 5);

* * *

assay: Pharmacokinetic study of SSR504734 in mice (serum and tissue concentrations by LC-MS/MS, noncompartmental analysis); type: in vivo; conditions: mouse, brain (relative to serum), ip, 30 mg/kg, brain, single 30 mg/kg i.p., read-out: Kp (tissue-to-serum partition coefficient, AUClast(tissue)/AUClast(serum))
valueType: Kp

INSERT INTO results (molecule, valuetype, experimentalvalue) VALUES
  ('O=C(NC(c1ccccc1)C1CCCCN1)c1cccc(C(F)(F)F)c1Cl (stereo not shown)', 'Kp', '> 3');

* * *

experiment: Pharmacokinetic study of SSR504734 in mice (serum and tissue concentrations by LC-MS/MS, noncompartmental analysis); assay type: in vivo; conditions: mouse, ip, liver, single 30 mg/kg i.p.
valueType: Tmax (min)

INSERT INTO measurements (molecule, valuetype, unitlabel, experimentalvalue) VALUES
  ('O=C(NC(c1ccccc1)C1CCCCN1)c1cccc(C(F)(F)F)c1Cl (stereo not shown)', 'Tmax', 'min', 5);

* * *

assay: Pharmacokinetic study of SSR504734 in mice (serum and tissue concentrations by LC-MS/MS, noncompartmental analysis); format: in vivo; conditions: mouse, ip, heart, single 30 mg/kg i.p.
valueType: MRT (h)

INSERT INTO assay_data (compound, valuetype, experimentalvalue) VALUES
  ('O=C(NC(c1ccccc1)C1CCCCN1)c1cccc(C(F)(F)F)c1Cl (stereo not shown)', 'MRT', 1.68);

Hey, just so you know, these numbers are from paper PMC11926788.
